Data origin, for the record: PubChem BioAssay AID2060888

Test system: 695427-040-R-J1-PDC complex spheroid viability;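 note: viability read after seven days of drug exposure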
assayExplanation: Anticancer human tumor 695427-040-R-J1-PDC patient-derived colon adenocarcinoma cell line growth inhibition [RAS]
runParameters: curve of first compound; second compound 0.00949 µM
quantityName: IC50 (nM)

compound	op	readoutNumber
C=CC(=O)N1CCN(c2nc(OCC3CCCN3C)nc3c(F)c(-c4nc(N)cc(C)c4C(F)(F)F)c(Cl)cc23)C(C)C1 (centres undefined) + CCn1c(-c2cc(N3CCN(C)CC3)cnc2C(C)OC)c2c3cc(ccc31)-c1csc(n1)CC(NC(=O)C1CC1C)C(=O)N1CCCC(N1)C(=O)OCC(C)(C)C2	>	1000
NC1c2ccccc2OC12CCN(c1cnc3c(N4CCCc5ncccc54)n[nH]c3n1)CC2 (centres undefined) + CCn1c(-c2cccnc2C(C)OC)c2c3cc(ccc31)N1CCOC(CC(NC(=O)C(C(C)C)N(C)C(=O)C3(F)CCN(C(=O)C#CC(C)(C)N(C)C)CC3)C(=O)N3CCCC(N3)C(=O)OCC(C)(C)C2)C1	=	973
Cc1nc(N2CCC3(CC2)COC(C)C3N)c(CO)nc1Sc1ccnc(N)c1Cl (centres undefined) + CCn1c(-c2cc(N3CCN(C)CC3)cnc2C(C)OC)c2c3cc(ccc31)-c1csc(n1)CC(NC(=O)C1CC1C)C(=O)N1CCCC(N1)C(=O)OCC(C)(C)C2	=	613
CC(=O)OC12COC1CC(O)C1(C)C(=O)C(O)C3=C(C)C(OC(=O)C(O)C(NC(=O)OC(C)(C)C)c4ccccc4)CC(O)(C(OC(=O)c4ccccc4)C21)C3(C)C (centres undefined) + CCn1c(-c2cc(N3CCN(C)CC3)cnc2C(C)OC)c2c3cc(ccc31)-c1csc(n1)CC(NC(=O)C1CC1C)C(=O)N1CCCC(N1)C(=O)OCC(C)(C)C2	=	292
